Each item that follows carries a reported peptide exchange yield.
Target: HLA-A*24 (human)
Assay: UV-ligand exchange, anti-b2m ELISA

# BINDER, peptide exchange yield
records = [
    ("VYEDQVGKF [peptide SEQ ID No 170 …]", "20 to 49%"),
    ("YYLEVGKTLI [peptide SEQ ID No 211 …]", "> 75%"),
    ("KYPVEWAKF [peptide SEQ ID No 289 …]", "> 75%"),
    ("IYSWILDHF [peptide SEQ ID No 173 …]", "> 75%"),
    ("TFSVSSHLF [peptide SEQ ID No 222 …]", "50 to 75%"),
    ("VYGFQWRHF [peptide SEQ ID No 276 …]", "> 75%"),
    ("LYLDIINLF [peptide SEQ ID No 181 …]", "> 75%"),
    ("QYLENLEKL [peptide SEQ ID No 224 …]", "50 to 75%"),
    ("RYPDNLKHLYL [peptide SEQ ID No 280 …]", "> 75%"),
    ("RYFKGLVF [peptide SEQ ID No 188 RYFKGLVF]", "50 to 75%"),
    ("TYIESASEL [peptide SEQ ID No 279 …]", "50 to 75%"),
    ("RYISDQLFTNF [peptide SEQ ID No 278 …]", "> 75%"),
    ("IYQLDTASI [peptide SEQ ID No 182 …]", "50 to 75%"),
    ("TYIKPISKL [peptide SEQ ID No 273 …]", "50 to 75%"),
    ("FYSRLLQKF [peptide SEQ ID No 203 …]", "50 to 75%"),
    ("GFFIFNERF [peptide SEQ ID No 190 …]", "50 to 75%"),
]

Cited source for all entries: patent US20170189510A1
